biological target: MOZ-KAT6A (Homo sapiens, UniProt Q92794, A567V); test: Acetyltransferase biochemical assay (AlphaScreen), KAT6A
Sequence (Q92794 with tags, fused parts or gaps A567V): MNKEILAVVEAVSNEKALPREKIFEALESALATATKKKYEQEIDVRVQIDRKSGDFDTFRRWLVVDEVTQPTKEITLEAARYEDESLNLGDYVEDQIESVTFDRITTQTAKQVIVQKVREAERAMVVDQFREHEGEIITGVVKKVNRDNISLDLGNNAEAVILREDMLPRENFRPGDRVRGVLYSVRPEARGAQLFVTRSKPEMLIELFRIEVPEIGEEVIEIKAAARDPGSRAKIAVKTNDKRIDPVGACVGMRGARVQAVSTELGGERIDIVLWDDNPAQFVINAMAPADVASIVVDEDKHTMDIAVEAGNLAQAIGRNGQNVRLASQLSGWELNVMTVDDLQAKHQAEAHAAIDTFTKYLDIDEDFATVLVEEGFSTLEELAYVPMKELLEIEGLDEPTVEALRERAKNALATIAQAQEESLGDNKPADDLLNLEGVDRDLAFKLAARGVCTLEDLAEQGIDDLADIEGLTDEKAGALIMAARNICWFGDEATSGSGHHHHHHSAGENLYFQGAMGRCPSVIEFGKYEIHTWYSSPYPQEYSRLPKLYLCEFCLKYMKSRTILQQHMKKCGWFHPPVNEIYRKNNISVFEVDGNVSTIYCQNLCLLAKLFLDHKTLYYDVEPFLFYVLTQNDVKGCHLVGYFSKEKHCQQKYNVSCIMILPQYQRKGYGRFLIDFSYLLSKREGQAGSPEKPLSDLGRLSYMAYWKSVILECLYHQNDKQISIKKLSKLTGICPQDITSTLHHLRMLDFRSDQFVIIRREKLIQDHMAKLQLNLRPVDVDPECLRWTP
Result type: IC50 (µM)

Input smiles | IC50 (µM)
O=S(=O)(Nc1noc2cccc(Cl)c12)c1ccc(Cl)cc1 | 60.1

[a] COc1cccc2onc(NS(=O)(=O)c3cccc4c3OCCC4)c12
[b] COc1cccc(OC)c1S(=O)(=O)Nc1noc2ccc(C)cc12
[c] O=S(=O)(Nc1noc2ccccc12)c1cccc(-c2ccccc2)c1
Task: Highest IC50 first, then in falling order down to the smallest. Use the labels to give the ranking in the order requested.
Result: c, a, b

====

molecular target: HBO-KAT7 (Homo sapiens)
pIC50: −log10 of the molar value.
Result type: pIC50

Example entries begin here.
Input smiles | pIC50
CCc1ccc(OC)c(S(=O)(=O)Nc2noc3cccc(-c4cnn(C)c4)c23)c1 | 4.26
COc1ccc2cccnc2c1S(=O)(=O)Nc1noc2cccc(OC)c12 | 5.47

[A] COc1cccc(OC)c1S(=O)(=O)Nc1noc2ccc(C)cc12
[B] CCc1ccc(OC)c(S(=O)(=O)Nc2noc3cccc(C4CC4)c23)c1
Task: Endpoint returns whichever of A and B has the numerically higher pIC50. Let me know the label of the one you choose.
Result: B
(B: 6.17, A: 5.50)

====

target: HBO-KAT7 (Homo sapiens, UniProt O95251)
Sequence (O95251 with tags, fused parts or gaps): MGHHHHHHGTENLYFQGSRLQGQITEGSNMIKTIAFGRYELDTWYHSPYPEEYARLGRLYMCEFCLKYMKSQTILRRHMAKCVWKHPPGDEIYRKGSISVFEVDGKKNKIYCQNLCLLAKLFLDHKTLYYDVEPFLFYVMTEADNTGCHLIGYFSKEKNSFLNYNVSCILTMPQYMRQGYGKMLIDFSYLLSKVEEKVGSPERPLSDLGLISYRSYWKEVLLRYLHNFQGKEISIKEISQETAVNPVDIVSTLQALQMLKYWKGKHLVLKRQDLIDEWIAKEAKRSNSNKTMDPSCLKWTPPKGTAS
pIC50: −log10 of the molar value.
Result type: pIC50

Example entries begin here.
Input smiles | Target | Measured value
COc1ccccc1S(=O)(=O)Nc1noc2cc(Cl)ccc12 | HBO-KAT7 (Homo sapiens, UniProt O95251) | 4.35
CCc1ccc(OC)c(S(=O)(=O)Nc2noc3c(C4CC4)cccc23)c1 | HBO-KAT7 (Homo sapiens, UniProt O95251) | 5.10
COCc1cc(OC)c2c(NS(=O)(=O)c3ccc(OC)c4cccnc34)noc2c1 | HBO-KAT7 (Homo sapiens, UniProt O95251) | 6.01
O=S(=O)(Nc1noc2cccc(Cl)c12)c1ccccc1-c1cnco1 | HBO-KAT7 (Homo sapiens, UniProt O95251) | 4.22
COc1ccc(S(=O)(=O)Nc2noc3cc(C(N)=O)c(C)cc23)c2ncccc12 | HBO-KAT7 (Homo sapiens, UniProt O95251) | 4.44

[1] CCc1ccc(OC)c(S(=O)(=O)Nc2noc3cc(-n4ccnn4)ccc23)c1
[2] COc1ccccc1S(=O)(=O)Nc1noc2cccc(F)c12
Task: Endpoint returns whichever of 1 and 2 has the numerically higher pIC50. Let me know the label of the one you choose.
Result: 2

====

biological target: MOZ-KAT6A (Homo sapiens, UniProt Q92794, A567V); assay: Acetyltransferase biochemical assay (AlphaScreen), KAT6A
Where a name gives a salt, the structure may show the parent alone.
Result type: IC50 (µM)

Example entries begin here.
Compound | Uom | IC50
COCc1cc2onc(NS(=O)(=O)c3ccc(OC)cc3OC)c2cc1C | µM | 0.123
CCc1ccc(OC)c(S(=O)(=O)Nc2noc3ccc(CN)cc23)c1 [Example 226, trifluoroacetate] | µM | 10.8
COc1cccc(OC)c1S(=O)(=O)Nc1noc2cccc(OC)c12 | µM | 5.89

[P] CCc1ccc(OC)c(S(=O)(=O)Nc2noc3c(C4CC4)cccc23)c1
[Q] CCc1ccc(OC)c(S(=O)(=O)Nc2noc3cc(-c4cnn(C)c4)ccc23)c1
[R] CCc1ccc(OC)c(S(=O)(=O)Nc2noc3cccc(OC)c23)c1
Task: Highest IC50 first, then in falling order down to the smallest. Use the labels to give the ranking in the order requested.
Result: Q, P, R
